This collection of values is drawn from ChEMBL document CHEMBL3272342.

For each entry below, report its Activity value.
# Tested on: Rattus norvegicus
# testName: Antiinflammatory activity in Wistar rat assessed as inhibition of carrageenan-induced edema measured as increase in foot volume at 40 mg/kg, po administered 1 hr prior challenge measured 7 hrs after carrageenin injection (reference value: 178.8 %)
# Format: functional
# Set-up: scale not given: the % may be the effect or the level left
Numbers only, in %.

Some molecules with recorded Activity:
Using the record for O=C(O)c1c(Cl)n(-c2ccccc2)c2ccccc12 , report its Activity.
201.1

Then what about the molecule O=C(O)c1c(Cl)[nH]c2ccccc12 ?
132.1

Then what about the molecule O=C(O)Cc1c(Cl)n(-c2ccccc2)c2ccccc12 ?
186.4

--- query ---
Using the record for Cn1c(Cl)c(C(=O)O)c2ccccc21 , report its Activity.
150.7

----------
# System: Rattus norvegicus
# testName: Antiinflammatory activity in Wistar rat assessed as inhibition of carrageenan-induced edema measured as increase in foot volume at 40 mg/kg, po administered 1 hr prior challenge measured 3 hrs after carrageenin injection (reference value: 187.6 %)
# Type: functional
# Set-up: scale not given: the % may be the effect or the level left
For each entry below, report its Activity value.
One number for each entry, in %.

Using the record for O=C(O)c1c(Cl)n(-c2ccccc2)c2ccccc12 , report its Activity.
173.8

Then what about the molecule O=C(O)c1c(Cl)[nH]c2ccccc12 ?
156.4

Then what about the molecule Cn1c(Cl)c(C(=O)O)c2ccccc21 ?
148.3

Others:
Using the record for O=C(O)Cc1c(Cl)n(-c2ccccc2)c2ccccc12 , report its Activity.
138
